Recorded values, source patent US20260062422A1.

TESTED_SYSTEM: BRD4-BD2 (Homo sapiens, UniProt O60885)
PROTOCOL_DETAILS: bromoKdELECT assay for binding affinity to BRD4-BD2
RUN_PARAMETERS: Table 7
Below, each of the compounds is paired with its reported Kd value.

For this compound ( "CCNC(=O)C[C@@H]1N=C(c2ccc(N3CCC(OC4CCN(c5ncc(C(=O)N[C@H]6C(C)(C)[C@H](Oc7ccc(C#N)c(Cl)c7)C6(C)C)cn5)CC4)CC3)cc2)c2c(sc(C)c2C)-n2c(C)nnc21" ), measured Kd is 0.5 to 2.5 µM

====

System: T-Rex 293 cell line SC3 cells lacking increased expression of androgen receptor protein
PROTOCOL_DETAILS: Cellular growth inhibition, T-Rex 293 SC3 cells without doxycycline, CellTiter-Glo
Type: cell-based
RUN_PARAMETERS: 72 h, T-Rex 293 SC3 cells not exposed to doxycycline, CellTiter-Glo 2.0
OBSERVED_PROPERTY: GI50

INSERT INTO assay_data (compound, result) VALUES
  ('Cc1sc2c(c1C)C(c1ccc(O[C@H]3C[C@H](OC4CCN(c5ncc(C(=O)N[C@H]6C(C)(C)[C@H](Oc7ccc(C#N)c(Cl)c7)C6(C)C)cn5)CC4)C3)cc1)=N[C@@H](Cc1ncco1)c1nnc(C)n1-2', '> 3000 nM'),
  ('Cc1sc2c(c1C)C(c1ccc(C[C@H]3C[C@@H](OC4CCN(c5ncc(C(=O)N[C@H]6C(C)(C)[C@H](Oc7ccc(C#N)c(Cl)c7)C6(C)C)cn5)CC4)C3)cc1)=N[C@@H](Cc1ncco1)c1nnc(C)n1-2', '> 3000 nM'),
  ('Cc1sc2c(c1C)C(c1ccc(C3CC(N4CCN(c5ncc(C(=O)N[C@H]6C(C)(C)[C@H](Oc7ccc(C#N)c(Cl)c7)C6(C)C)cn5)CC4)C3)cc1)=N[C@@H](Cc1ncco1)c1nnc(C)n1-2 (some centres unmarked)', '500 to 1500 nM'),
  ('Cc1sc2c(c1C)C(c1ccc(CCN3CCC4(CCCN(c5ncc(C(=O)N[C@H]6C(C)(C)[C@H](Oc7ccc(C#N)c(Cl)c7)C6(C)C)cn5)C4)C3)cc1)=N[C@@H](Cc1ncco1)c1nnc(C)n1-2 (some centres unmarked)', '500 to 1500 nM'),
  ('Cc1sc2c(c1C)C(c1ccc(OC3CC4(CCN(c5ncc(C(=O)N[C@H]6C(C)(C)[C@H](Oc7ccc(C#N)c(Cl)c7)C6(C)C)cn5)CC4)C3)cc1)=N[C@@H](C)c1nnc(C)n1-2', '> 3000 nM'),
  ('Cc1sc2c(c1C)C(c1ccc(OC3CC4(C3)CC3(CCN(c5ncc(C(=O)N[C@H]6C(C)(C)[C@H](Oc7ccc(C#N)c(Cl)c7)C6(C)C)cn5)CC3)C4)cc1)=N[C@@H](Cc1ncco1)c1nnc(C)n1-2', '> 3000 nM'),
  ('Cc1sc2c(c1C)C(c1ccc(C(C)(C)N3CC4(CCCN(c5ncc(C(=O)N[C@H]6C(C)(C)[C@H](Oc7ccc(C#N)c(Cl)c7)C6(C)C)cn5)C4)C3)cc1)=N[C@@H](C)c1nnc(C)n1-2', '> 3000 nM'),
  ('Cc1sc2c(c1C)C(c1ccc(C(=O)N3CC[C@@]4(CCCN(c5ncc(C(=O)N[C@H]6C(C)(C)[C@H](Oc7ccc(C#N)c(Cl)c7)C6(C)C)cn5)C4)C3)cc1)=N[C@@H](Cc1ncco1)c1nnc(C)n1-2', '> 3000 nM');

Measured GI50 for this entry "Cc1sc2c(c1C)C(c1ccc(OC3CC4(CCN(c5ncc(C(=O)N[C@H]6C(C)(C)[C@H](Oc7ccc(C#N)c(Cl)c7)C6(C)C)cn5)CC4)C3)cc1)=N/C(=C/c1ncco1)c1nnc(C)n1-2" on T-Rex 293 cell line SC3 cells lacking increased expression of androgen receptor protein: > 3000 nM

Measured GI50 for this entry "CCNC(=O)C[C@@H]1N=C(c2ccc(N(C3CC3)C3CN(CC4CCN(c5ncc(C(=O)N[C@H]6C(C)(C)[C@H](Oc7ccc(C#N)c(Cl)c7)C6(C)C)cn5)CC4)C3)cc2)c2c(sc(C)c2C)-n2c(C)nnc21" on T-Rex 293 cell line SC3 cells lacking increased expression of androgen receptor protein: 1500 to 3000 nM

Measured GI50 for this entry Cc1sc2c(c1C)C(c1ccc(NCCC3CCN(c4ncc(C(=O)N[C@H]5C(C)(C)[C@H](Oc6ccc(C#N)c(Cl)c6)C5(C)C)cn4)CC3)cc1)=NC(Cc1ncco1)c1nnc(C)n1-2 (some centres unmarked) on T-Rex 293 cell line SC3 cells lacking increased expression of androgen receptor protein: < 500 nM

Measured GI50 for this entry "Cc1sc2c(c1C)C(c1ccc(N3CCC(CC4CCN(c5ncc(C(=O)N[C@H]6C(C)(C)[C@H](Oc7ccc(C#N)c(Cl)c7)C6(C)C)cn5)CC4)CC3)cc1)=N[C@H](Cc1ncco1)c1nnc(C)n1-2" on T-Rex 293 cell line SC3 cells lacking increased expression of androgen receptor protein: 500 to 1500 nM

Measured GI50 for this entry "CCNC(=O)C[C@@H]1N=C(c2ccc(OCCCN(C)c3ncc(C(=O)N[C@H]4C(C)(C)[C@H](Oc5ccc(C#N)c(Cl)c5)C4(C)C)cn3)cc2)c2c(sc(C)c2C)-n2c(C)nnc21" on T-Rex 293 cell line SC3 cells lacking increased expression of androgen receptor protein: 500 to 1500 nM
